method description: melting temperature; fluorescence melt of hairpins on a sequencing array, two-state fit, raised by 9.35 °C to match UV melts
setup conditions: sodium 0.088 M
Lab note: anything with Tm below 50 °C is marked condition met; values at 50 °C or higher are marked condition not met.

In [3]: df
Out[3]:
                                      seq        class_label
 0  GCGGTGCGAAAGCCCAGC ((.(.((....)).).))  condition not met
 1  GTTTCCGAAAGGAAGAAC ((((((....)))..)))      condition met
 2  GAACACGAAAGTGGGTTC ((((((....)))..)))      condition met
 3        GATCCCGTTGGGATC ((((((...))))))  condition not met
 4  GATGTCGGAAACGGCATC ((((.((....)).))))  condition not met
 5  GTCTCCGAAAGGAGTGAC ((((((....)))..)))      condition met
 6  GCAGATCGAAAGATATGC (((.(((....))).)))  condition not met
 7  GCTCTCGAAAGAGTGAGC ((((((....)))..)))      condition met
 8  GCAGAAGGAAACTTTTGC (((.(((....))).)))      condition met
 9  GCCCTATCGAAAGATGGC (((..(((....))))))      condition met
10      GATCTGTCCGCAGATC ((((((....))))))  condition not met
11  GTTGACGAAAGTCTGAAC ((((((....)))..)))      condition met
12  GCACTCGAAAGAGTCTGC ((((((....)))..)))      condition met
13    GCGCTCCGAAAGGACGC (((.(((....))))))  condition not met
14      GGTTCGGAAACGAACC ((((((....))))))  condition not met
15  GGGAAGCGAAAGCTACCC (((.(((....))).)))  condition not met
16  GCCGGAGGAAACCCCGGC (((((.(....).)))))  condition not met
17      GTATCGGAAACGATAC ((((((....))))))  condition not met
18    GCGATCCGAAAGGACGC (((.(((....))))))  condition not met
19    GGTCGCGAAAGCGCACC ((((((....))).)))  condition not met
20      GATCCACTTGTGGATC ((((((....))))))  condition not met
21  GAATACGGAAACGTGTTC (((.(((....))).)))      condition met
22  GTCCTACGAAAGTATGAC (((.(((....))).)))      condition met
23  GTTATGCGAAAGCAGAAC (((.(((....))).)))  condition not met
24  GACGAAGGAAACTTCGTC (((((((....)))))))  condition not met
25  GCGGTGGGAAACCGTCGC (((..((....))..)))  condition not met
26  GTCAGGTCGAAAGACGAC (((..(((....))))))      condition met
27  GCGTAATCGAAAGATCGC (((..(((....))))))      condition met
28    CGGACGGAAACGTGCCG ((((((....))).)))      condition met
29  GCATTGCGAAAGCAGAGC ((..(((....)))..))      condition met
30  GAATTGCGAAAGCATTTC (((.(((....))).)))      condition met
31      GATCAAACTGTTGATC ((((((....))))))      condition met
32  GAGGCCGAAAGGCAACTC ((((((....)))..)))      condition met
33        GATCGTAACACGATC ((((((...))))))  condition not met
34  GTCACTCCGAAAGGAGAC (((..(((....))))))      condition met
35  GCCGGCGGAAACGCCAGC ((.((((....)))).))  condition not met
36          GAGAAGAAATTCTC (((((....)))))      condition met
37  GGTGCCGAAAGGCTCACC ((((((....)))..)))      condition met
38  GCCGCGCGAAAGCGACGC ((..(((....)))..))  condition not met
39  GCTGGGCGAAAGCGCGGC ((.(.((....)).).))  condition not met
40      GATCGCATAAGCGATC ((((((....))))))  condition not met
41  CGATGCGGAAACGCGTCG (((.(((....))).)))  condition not met
